# procedure_summary: viability loss in pontine glioma line – cell-based, SU-DIPG-XVII, MIPE5.0, CellTiter-Glo, qHTS, dose response (AID 1347060);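 for AC50: cells exposed to compound for 48 hours before viability readout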
# condition_set: CellTiter-Glo ATP luminescence
Results filed as inconclusive are left out. Calls of active or inactive are those of the source. No cut-off is given here; in the data, nearly all actives have AC50 up to about 26 µM.
Hi! Could you answer with just one of these? y (active), n (inactive)

Here are 6 compounds together with their reported answers.
compound	cat
Nc1nc(Nc2ccc(S(N)(=O)=O)cc2)nn1C(=O)c1c(F)cccc1F	y
N#CCNC(=O)c1ccc(-c2ccnc(Nc3ccc(N4CCOCC4)cc3)n2)cc1	y
NC(CC1c2ccccc2Oc2ccccc21)(C(=O)O)C1CC1C(=O)O (configuration not stated)	n
CC(C)c1c(-c2ccccc2)nc2c(C#N)c[nH]n2c1=O	n
Cc1cc(-c2nc3cc(F)ccc3s2)ccc1NC(=O)[C@@H](N)CCCCN	y
COc1cccc(Nc2ncnn3ccc(CN4CC[C@@H](N)[C@H](O)C4)c23)c1	y

Record request — test call for `CN1CCN(c2ccc3nc(-c4cc(C(C)(C)C)c(OCCCC(=O)NCCCN=[N+]=[N-])c(C(C)(C)C)c4)[nH]c3c2)CC1` y

Record request — test call for `O=C(O)CNC(=O)c1nc(Cl)c2ccccc2c1O` n

Record request — test call for `Cc1ccc(-c2nc(N)nc3c2nnn3Cc2cccc(CO[C@H]3CCOC3)n2)o1` n

Record request — test call for `CCc1c(-c2ccccc2C)nc2c(C#N)c[nH]n2c1=O` n

Record request — test call for `CC(/C=C/C(=O)NO)=C\[C@@H](C)C(=O)c1ccc(N(C)C)cc1` y

Record request — test call for `COc1cc2nc(-c3ccc(N4CCN(C)CC4)cc3)nc(NCCN3CCOCC3)c2cc1OC` y

Record request — test call for `CO[C@H]1/C=C/O[C@@]2(C)Oc3c(C)c(O)c4c(O)c(c(/C=N/N5CCN(C)CC5)c(O)c4c3C2=O)NC(=O)/C(C)=C\C=C\[C@H](C)[C@H](O)[C@@H](C)[C@@H](O)[C@@H](C)[C@H](OC(C)=O)[C@@H]1C` n

Record request — test call for `Nc1ncnc(Nc2ccc(OCc3ccccc3)c(Cl)c2)c1/C=N/OCCN1CCOCC1` y

Record request — test call for `Cn1cc(-c2nc(N[C@@H]3CCCC[C@@H]3N)c(F)c3c2C(=O)NC3)cn1` n

Record request — test call for `Cc1nc(Nc2n[nH]c3c2CN(C(=O)N[C@H](CN(C)C)c2ccccc2)C3(C)C)c2sccc2n1` y

Record request — test call for O=C(O)CC(C(=O)O)n1c(O)c(C2=c3cc(Br)ccc3=NC2=O)sc1=S (configuration not stated) n

Record request — test call for `O=C(O)CCNc1cc(N2CCc3ccccc3CC2)nc(-c2ccccn2)n1` n

Record request — test call for `CN[C@@H](C)C(=O)N[C@H]1CCCC[C@H]2CC[C@@H](C(=O)N[C@@H](c3ccccc3)c3cn(CCCCc4ccc(CCCCn5cc([C@@H](NC(=O)[C@@H]6CC[C@@H]7CCCC[C@H](NC(=O)[C@H](C)NC)C(=O)N76)c6ccccc6)nn5)cc4)nn3)N2C1=O` n

* * *

# System: Aerobactin synthetase IucA (Klebsiella pneumoniae)
# procedure_summary: inhibition of K. pneumoniae IucA enzyme – biochemical, Tocris library, absorbance (AID 1345561);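 note: 100% = enzyme without compound and 0% = no enzyme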
# condition_set: purified IucA enzyme assay, absorbance (OD) read-out; active compounds read low; concentration not given here
value_kind: remaining activity (%)
# unit: % | format: bare number

# annotated cases, reported remaining activity shown
> print(dat)
                                   molecule          value.kind  quantitative.readout
1  O=C(CCCc1ccc(-c2ccccc2F)cc1)Nc1ccc(O)cc1  remaining activity                  95.9
2  CC1(C)Oc2ccc(C#N)cc2[C@H](N2CCCC2=O)[C@H]1O (racemic)  remaining activity                   116
3  NC(=O)N1c2ccccc2CC(O)c2ccccc21 (stereo not drawn)  remaining activity                   111
4   O=c1[nH]ccc2c(S(=O)(=O)N3CCCNCC3)cccc12  remaining activity                   105
5  Clc1ccccc1CNCC1CCC(CNCc2ccccc2Cl)CC1 (stereo not drawn)  remaining activity                   103
6  COC(=O)c1sccc1S(=O)(=O)Nc1ccc(Nc2ccccc2)cc1OC  remaining activity                  87.9
7  Cc1c(C2CCN(CCc3ccccc3)CC2)noc1-c1ccc(Cl)cc1  remaining activity                  92.3
8  C/C=C1/C(=O)C[C@H]2[C@@H]3CCC4=CC(=O)CC[C@]4(C)[C@H]3CC[C@]12C  remaining activity                   104

Request the reported remaining activity associated with `CNC(=O)[C@H]1O[C@@H](n2cnc3c(NCc4cccc(I)c4)ncnc32)[C@H](O)[C@@H]1O` 116

Request the reported remaining activity associated with N#CC(Cc1ccc(O)cc1)c1ccc(O)cc1 (stereo not drawn) 90.6

Request the reported remaining activity associated with `COc1ccc([C@H]2CNC(=O)C2)cc1OC1CCCC1` 113

Request the reported remaining activity associated with CC1Nc2ccc(Cl)cc2S(=O)(=O)N1 (stereo not drawn) 102

Request the reported remaining activity associated with `C=C1C(=O)O[C@@H]2/C=C(\C)CC/C=C(\C)CC[C@@H]12` 118

The reported measurements were obtained from PubChem BioAssay.
